// reported MIC90 per item
# System: Staphylococcus aureus
# assayText: Antimicrobial activity against heterogeneous glycopeptide-intermediate Staphylococcus aureus by broth microdilution technique after 24 hrs
# Format: functional

{"compound": "CCCCCCCCNCCC[C@@H](C)[C@H]1CC[C@H]2[C@@H]3[C@H](OCCCN)CC4C[C@H](OCCCN)CC[C@]4(C)[C@H]3C[C@H](OCCCN)[C@]12C.Cl.Cl.Cl.Cl (stereo not given in full)", "MIC90 [µg/mL]": 1}
{"compound": "CC(=O)NC[C@H]1CN(c2ccc(N3CCOCC3)c(F)c2)C(=O)O1 [LINEZOLID]", "MIC90 [µg/mL]": 2}
{"compound": "CN[C@H](CC(C)C)C(=O)N[C@H]1C(=O)N[C@@H](CC(N)=O)C(=O)N[C@H]2C(=O)N[C@H]3C(=O)N[C@H](C(=O)N[C@H](C(=O)O)c4cc(O)cc(O)c4-c4cc3ccc4O)[C@H](O)c3ccc(c(Cl)c3)Oc3cc2cc(c3O[C@@H]2O[C@H](CO)[C@@H](O)[C@H](O)[C@H]2O[C@H]2C[C@](C)(N)[C@H](O)[C@H](C)O2)Oc2ccc(cc2Cl)[C@H]1O [VANCOMYCIN]", "MIC90 [µg/mL]": 8}
{"compound": "C[C@H](CCCO)[C@H]1CC[C@H]2[C@@H]3[C@H](OCCCN)CC4C[C@H](OCCCN)CC[C@]4(C)[C@H]3C[C@H](OCCCN)[C@]12C.Cl (stereo not given in full)", "MIC90 [µg/mL]": 8}
{"compound": "CCCCCCCCCC(=O)N[C@@H](Cc1c[nH]c2ccccc12)C(=O)N[C@H](CC(N)=O)C(=O)N[C@@H](CC(=O)O)C(=O)N[C@@H]1C(=O)NCC(=O)N[C@@H](CCCN)C(=O)N[C@@H](CC(=O)O)C(=O)N[C@H](C)C(=O)N[C@@H](CC(=O)O)C(=O)NCC(=O)N[C@H](CO)C(=O)N[C@@H]([C@H](C)CC(=O)O)C(=O)N[C@@H](CC(=O)c2ccccc2N)C(=O)O[C@@H]1C", "MIC90 [µg/mL]": 1}
